Molecular target: purified human MAP4K4 kinase domain (Homo sapiens, UniProt O95819)
Construct: purified human MAP4K4 kinase domain
Sequence (O95819 25-289 limits assumed): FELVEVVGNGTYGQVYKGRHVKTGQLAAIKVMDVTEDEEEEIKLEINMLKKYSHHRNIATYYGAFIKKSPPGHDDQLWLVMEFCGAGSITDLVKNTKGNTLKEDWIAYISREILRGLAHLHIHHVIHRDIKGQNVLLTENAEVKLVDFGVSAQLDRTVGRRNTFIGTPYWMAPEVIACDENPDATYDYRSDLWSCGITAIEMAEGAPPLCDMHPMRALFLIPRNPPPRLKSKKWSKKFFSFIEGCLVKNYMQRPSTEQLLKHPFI
Experiment: MAP4K4 Inhibition Assay Protocol No. 1 (Caliper LabChip, moesin-derived peptide phosphorylation)
Type: biochemical
Conditions: Assay 1; 1 nM enzyme, 10 uM ATP, 45 min
Description: The kinase activity of purified human MAP4K4 kinase domain was measured by monitoring the phosphorylation of a peptide substrate derived from moesin protein (Leu-Gly-Arg-Asp-Lys-Tyr-Lys-Thr-Leu-Arg-Gln-Ile-Arg-Gln) fluorescently labeled on the N-terminus with 5-carboxyfluorescein using the Caliper LabChip technology (Caliper Life Sciences, Hopkinton, Mass.). […] IC50 values were determined using the four-parameter non-linear fit model.
Answer each item with its documented IC50.
Numbers only, in µM.

Worked examples follow.
>  <compound>
CC(=O)N1CCC(NC(=O)c2cnc(N)c3cc(-c4cccc(F)c4)ccc23)CC1

>  <numeric.value>
0.102

$$$$
>  <compound>
CCN1CC(NC(=O)c2cnc(N)c3cc(-c4cccc(F)c4)ccc23)C1

>  <numeric.value>
1.2

$$$$

List the reported IC50 of each compound below.
1. Nc1ncc(C(=O)N[C@H]2C[C@H](O)C2)c2ccc(-c3cccc(F)c3)nc12 [Example 14b]
2. Cc1ncc(NC(=O)c2cnc(N)c3cc(-c4cccc(F)c4)ccc23)cn1

1: 0.00419; 2: 0.07

List the reported IC50 of each compound below.
1. Nc1ncc(C(=O)NCC2CCOCC2)c2ccc(-c3cccc(F)c3)cc12
2. CC(=O)N1CCN(C(=O)c2cnc(N)c3cc(-c4cccc(F)c4)ccc23)CC1
3. Nc1ncc(C(=O)NCc2cccnc2)c2ccc(-c3cccc(F)c3)cc12
4. Nc1ncc(C(=O)NCCN2CCS(=O)(=O)CC2)c2ccc(-c3cccc(F)c3)cc12
5. CN(C)C(=O)CN1CCN(C(=O)c2cnc(N)c3cc(-c4cccc(F)c4)ccc23)CC1
6. Nc1ncc(C(=O)NCC2CCOC2)c2ccc(-c3cccc(F)c3)cc12 (stereo not drawn)
7. Nc1ncc(C(=O)NC2CCOC2)c2ccc(-c3cccc(F)c3)cc12 (stereo not drawn)

[0.249, 2.6, 0.077, 0.245, 1.5, 0.0999, 0.0731]

List the reported IC50 of each compound below.
1. Nc1ncc(-c2nc3ccccc3[nH]2)c2ccc(-c3cccc(F)c3)cc12
2. Nc1ncc(C(=O)NCCN2CCCC2)c2ccc(-c3cccc(F)c3)cc12
3. CN(C)C(=O)c1nc(CNC(=O)c2cnc(N)c3cc(-c4cccc(F)c4)ccc23)no1
4. NC(=O)c1cnc(N)c2cc(-c3cccc(F)c3)ccc12
5. NC(=O)C1CCN(C(=O)c2cnc(N)c3cc(-c4cccc(F)c4)ccc23)CC1
6. Cc1cncc(NC(=O)c2cnc(N)c3cc(-c4cccc(F)c4)ccc23)c1
7. Nc1ncc(C(=O)NC2CNC2)c2ccc(-c3cccc(F)c3)cc12

[0.299, 1.6, 0.122, 0.0327, 1.5, 0.114, 0.4]
